Provide the reported Kd of each item.
target: T1, human CD33 extracellular domain (human, UniProt P20138 18-259); experiment: SPR, Fab captured, 37C;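 also: fabs captured on an anti-Fab surface, soluble monomeric CD33 ECD flowed over at several concentrations, double-referenced curves fit to a 1:1 binding model, KD taken as koff/kon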
T1 construct: soluble monomeric ECD; also called human CD33 ECD; hCD33

Query string: // query Kd value for entry ADI-11807 Fab (Fab, V domains shown, Fab fragment; also called Ab5; I07) VH: EVQLVESGGGLVQPGGSLRLSCAASGFTFGSYWMSWVRQAPGKGLEWVATIKQDGSEKSYVDSVKGRFTISRDNAKNSLYLQMNSLRAEDTAVYYCARPLNAGELDVWGQGTMVTVSS VL: DIQMTQSPSTLSASVGDRVTITCRASQSISSWLAWYQQKPGKAPKLLIYEASSLESGVPSRFSGSGSGTEFTLTISSLQPDDFATYYCQQSQSYPPITFGGGTKVEIK
Result string: 0.29 nM

Query string: Next binder up: ADI-11830 Fab (Fab, V domains shown, Fab fragment; also called Ab9) VH: EVQLVESGGGLVQPGGSLRLSCAASGFTFSSYWMSWVRQAPGKGLEWVANINTDGSEVYYVDSVKGRFTISRDNAKNSLYLQMNSLRAEDTAVYYCARDVGPGIAYQGHFDYWGQGTLVTVSS VL: DIQMTQSPSSLSASVGDRVTITCRASQVIYSYLNWYQQKPGKAPKLLIYAASSLKSGVPSRFSGSGSGTDFTLTISSLQPEDFATYYCQQVYDTPLTFGGGTKVEIK
Result string: 2.75 nM

Query string: Entry ADI-10163 Fab (Fab, V domains shown, Fab fragment; also called Ab17) VH: QVQLQESGPGLVKPSQTLSLTCTVSGGSISSGGYYWSWIRQHPGKGLEWIGSIYYSGSTYYNPSLKSRVTISVDTSKNQFSLKLSSVTAADTAVYYCARDRLDYSYNYGMDVWGQGTTVTVSS VL: DIQMTQSPSSLSASVGDRVTITCRASQSISSYLNWYQQKPGKAPKLLIYGASSLQSGVPSRFSGSGSGTDFTLTISSLQPEDFATYYCQQVYSAPFTFGGGTKVEIK please
Result string: 53.5 nM

Query string: Check ADI-10159 Fab (Fab, V domains shown, Fab fragment; also called Ab1; G59) VH: EVQLVESGGGLVQPGGSLRLSCAASGFTFSSYGMSWVRQAPGKGLEWVANIKQDGSEKYYVDSVKGRFTISRDNAKNSLYLQMNSLRAEDTAVYYCAREGGPYYDSSGYFVYYGMDVWGQGTTVTVSS VL: DIQMTQSPSTLSASVGDRVTITCRASQSISSWLAWYQQKPGKAPKLLIYDASSLESGVPSRFSGSGSGTEFTLTISSLQPDDFATYYCQQYESFPTFGGGTKVEIK too.
Result string: 4.53 nM

Query string: Likewise for ADI-11812 Fab (Fab, V domains shown, Fab fragment; also called Ab24) VH: QVQLVQSGAEVKKPGASVKVSCKASGYTFEIYYMHWVRQAPGQGLEWMGIINPSSGSTVYAQKFQGRVTMTRDTSTSTVYMELSSLRSEDTAVYYCARGAGYDDEDMDVWGKGTTVTVSS VL: DIQMTQSPSSVSASVGDRVTITCRASQGIDSWLAWYQQKPGKAPKLLIYAASSLQSGVPSRFSGSGSGTDFTLTISSLQPEDFATYYCQQAHSYPLTFGGGTKVEIK ?
Result string: 1.23 nM
